- System: GFPY40 reporter (GFP containing an amber codon) in HEK293 cells stably expressing pylRS
- test_description: Amber suppression-dependent GFP expression (GFPY40 reporter), transient transfection, flow cytometry
- Type: cell-based
- recorded_conditions: 2 mM lys-azide nnAA; three days
property_name: GFP mean fluorescence intensity (MFI), FIG. 5

>>> recorded_result("B tRNA: tRNApyl Methanosarcina mazei with A52C mutation (B-box) (nucleic acid, expressed or natural sequence) DNA: GGAAACCTGATCATGTAGATCGAATGGACTCTAAATCCGTTCAGCCGGGTTCGATTCCCGGGGTTTCCG")
"410,131.1"
>>> recorded_result("H1-tRNA: WT tRNApyl under control of the H1 promoter, positive control (nucleic acid, Synthetic sequence H1 tRNA-WT construct) DNA: AATATTTGCATGTCGCTATGTGTTCTGGGAAATCACCATAAACGTGAAATCCCTATCAGTGATAGAGACTTATAAGTTCCCTATCAGTGATAGAGACACCAGGAAACCTGATCATGTAGATCGAATGGACTCTAAATCCGTTCAGCCGGGTTAGATTCCCGGGGTTTCCGGACAAGTGCGGTTTTTTT")
"1,004,228.00"
>>> recorded_result("WT tRNA: wild type tRNApyl gene of Methanosarcina mazei without extragenic promoter (nucleic acid, listed as Methanosarcina mazei, expressed or natural sequence, wild type tRNApyl gene of Methanosarcina mazei without extragenic promoter) DNA: GGAAACCTGATCATGTAGATCGAATGGACTCTAAATCCGTTCAGCCGGGTTAGATTCCCGGGGTTTCCG")
"114,478.1"
>>> recorded_result("A2B tRNA: tRNApyl Methanosarcina mazei with A10G, T14A, A52C mutations (nucleic acid, expressed or natural sequence, tRNApyl Methanosarcina mazei with A10G, T14A, A52C mutations) DNA: GGAAACCTGGTCAAGTAGATCGAATGGACTCTAAATCCGTTCAGCCGGGTTCGATTCCCGGGGTTTCCG")
"242,747.9"
